# target-entity: ATP-dependent translocase ABCB1 (Homo sapiens, UniProt P08183)
# Sequence (P08183 whole entry): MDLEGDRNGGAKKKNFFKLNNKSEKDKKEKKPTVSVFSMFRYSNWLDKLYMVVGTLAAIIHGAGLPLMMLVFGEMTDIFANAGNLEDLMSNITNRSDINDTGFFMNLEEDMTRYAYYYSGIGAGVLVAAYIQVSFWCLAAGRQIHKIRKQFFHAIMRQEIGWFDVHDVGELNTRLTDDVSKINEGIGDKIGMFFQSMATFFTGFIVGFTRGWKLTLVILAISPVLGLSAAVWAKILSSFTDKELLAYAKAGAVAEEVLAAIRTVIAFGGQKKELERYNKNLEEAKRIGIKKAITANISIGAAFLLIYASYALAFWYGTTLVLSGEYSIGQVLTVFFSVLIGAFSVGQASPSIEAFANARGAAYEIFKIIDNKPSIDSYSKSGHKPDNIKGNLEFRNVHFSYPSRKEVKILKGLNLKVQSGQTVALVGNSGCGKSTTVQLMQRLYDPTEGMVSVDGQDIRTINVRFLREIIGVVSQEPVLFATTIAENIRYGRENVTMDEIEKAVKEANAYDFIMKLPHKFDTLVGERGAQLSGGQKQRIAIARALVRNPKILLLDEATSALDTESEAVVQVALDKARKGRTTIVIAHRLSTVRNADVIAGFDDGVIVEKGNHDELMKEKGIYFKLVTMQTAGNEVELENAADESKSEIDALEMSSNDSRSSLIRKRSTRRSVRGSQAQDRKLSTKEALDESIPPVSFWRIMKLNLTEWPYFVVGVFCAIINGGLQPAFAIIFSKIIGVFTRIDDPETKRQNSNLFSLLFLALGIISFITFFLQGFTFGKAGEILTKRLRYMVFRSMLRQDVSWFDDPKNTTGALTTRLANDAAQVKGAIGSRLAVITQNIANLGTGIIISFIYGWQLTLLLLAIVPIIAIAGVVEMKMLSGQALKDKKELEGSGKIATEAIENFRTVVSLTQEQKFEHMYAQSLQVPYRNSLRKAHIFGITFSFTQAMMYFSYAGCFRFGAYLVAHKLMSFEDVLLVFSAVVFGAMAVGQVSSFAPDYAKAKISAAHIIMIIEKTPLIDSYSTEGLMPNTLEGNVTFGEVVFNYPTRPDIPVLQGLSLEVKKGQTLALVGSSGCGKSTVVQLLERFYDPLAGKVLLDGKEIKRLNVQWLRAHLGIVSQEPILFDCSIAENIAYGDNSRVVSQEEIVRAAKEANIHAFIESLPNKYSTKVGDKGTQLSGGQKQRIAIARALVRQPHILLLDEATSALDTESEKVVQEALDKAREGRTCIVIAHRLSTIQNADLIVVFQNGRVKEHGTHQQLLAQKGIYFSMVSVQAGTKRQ
# test-description: Inhibition of MDR1-mediated efflux-pump activity in mouse L5178Y cells expressing human MDR1 assessed as forward scattered light at 2 uM preincubated for 10 mins followed by rhodamine-123 addition measured after 20 mins by flow cytometry (reference value: 455.7 to 509.9)
# Format: cell-based
Items are presented alongside their recorded Activity.
Just the number, please.

Worked set:
1. CC(C)=C[C@H](O)C[C@@H](C)[C@H]1CC[C@@]2(C)[C@@H]3C(=O)C=C4[C@@H](CC[C@H](O)C4(C)C)[C@]3(C)CC[C@]12C; 582.7
2. CO[C@H]1C=C2[C@@H](CC[C@H](O)[C@]2(C)CO)[C@]2(C)CC[C@]3(C)[C@@H]([C@H](C)C[C@@H](O)C=C(C)C)CC[C@@]3(C)[C@H]12; 439.5
3. CO[C@H]1C=C2[C@@H](CC[C@H](OC(=O)c3ccc([N+](=O)[O-])cc3)C2(C)C)[C@]2(C)CC[C@]3(C)[C@@H]([C@H](C)C[C@H](C=C(C)C)OC(=O)c4ccc([N+](=O)[O-])cc4)CC[C@@]3(C)[C@H]12 [KARAVOATE J]; 543.4
4. C[C@H](C/C=C/C(C)(C)O)[C@H]1CC[C@@]2(C)[C@@H]3[C@@H](O)C=C4[C@@H](CC[C@H](O)C4(C)C)[C@]3(C)C[C@@H](O)[C@]12C; 427.2
5. CC(C)=CC(=O)C[C@@H](C)[C@H]1CC[C@@]2(C)[C@@H]3C(=O)C=C4[C@@H](CC[C@H](O)[C@]4(C)CO)[C@]3(C)CC[C@]12C; 502.3
6. CO[C@H]1C=C2[C@@H](CC[C@H](OC(=O)/C=C/c3ccccc3)C2(C)C)[C@]2(C)CC[C@]3(C)[C@@H]([C@H](C)C[C@H](C=C(C)C)OC(=O)/C=C/c4ccccc4)CC[C@@]3(C)[C@H]12 [KARAVOATE P]; 528

Exercise: Any idea what Activity was measured for CC(C)=C[C@H](O)C[C@@H](C)[C@H]1CC[C@@]2(C)[C@@H]3C(O[C@H]4O[C@@H](CO)[C@H](O)[C@@H](O)[C@@H]4O)C=C4[C@@H](CC[C@H](O)C4(C)C)[C@]3(C)CC[C@]12C (stereo partly specified) ?
Key: 557.9

---

# target-entity: ATP-dependent translocase ABCB1 (Homo sapiens, UniProt P08183)
# test-description: Inhibition of MDR1-mediated efflux-pump activity in mouse L5178Y cells expressing human MDR1 assessed as mean fluorescence intensity at 20 uM preincubated for 10 mins followed by rhodamine-123 addition measured after 20 mins by flow cytometry (reference value: 7.1 to 18.6)
# Type: cell-based
Items are presented alongside their recorded Flu intensity.
Just the number, please.

Worked set:
1) CCCC(=O)O[C@H]1CC[C@@H]2C(=C[C@H](OC)[C@@H]3[C@@]2(C)CC[C@]2(C)[C@@H]([C@H](C)C[C@H](C=C(C)C)OC(=O)CCC)CC[C@@]32C)C1(C)C [KARAVOATE F]; 12.3
2) CO[C@H]1C=C2[C@@H](CC[C@H](O)C2(C)C)[C@]2(C)CC[C@]3(C)[C@@H]([C@H](C)C[C@H](C=C(C)C)OC(=O)CCC(=O)O)CC[C@@]3(C)[C@H]12; 28
3) CC(=O)O[C@H]1C=C2[C@@H](CC[C@H](OC(C)=O)C2(C)C)[C@]2(C)CC[C@]3(C)[C@@H]([C@H](C)C[C@H](C=C(C)C)OC(C)=O)CC[C@@]3(C)[C@H]12; 100.6

Turning now to a further record.
Exercise: Any idea what Flu intensity was measured for CO[C@H]1C=C2[C@@H](CC[C@H](OC(=O)c3ccc(Cl)cc3)C2(C)C)[C@]2(C)CC[C@]3(C)[C@@H]([C@H](C)C[C@H](C=C(C)C)OC(=O)c4ccc(Cl)cc4)CC[C@@]3(C)[C@H]12 [KARAVOATE L] ?
Key: 9

---

# target-entity: ATP-dependent translocase ABCB1 (Homo sapiens, UniProt P08183)
# test-description: Inhibition of MDR1-mediated efflux-pump activity in mouse L5178Y cells expressing human MDR1 assessed as fluorescence activity ratio at 20 uM preincubated for 10 mins followed by rhodamine-123 addition measured after 20 mins by flow cytometry
# Format: cell-based
Items are presented alongside their recorded Ratio.
Just the number, please.

Worked set:
1. COc1ccc(C(=O)O[C@H]2CC[C@@H]3C(=C[C@H](OC)[C@@H]4[C@@]3(C)CC[C@]3(C)[C@@H]([C@H](C)C[C@H](C=C(C)C)OC(=O)c5ccc(OC)cc5)CC[C@@]43C)C2(C)C)cc1 [KARAVOATE N]; 1.4
2. CO[C@H]1C=C2[C@@H](CC[C@H](O)C2(C)C)[C@]2(C)CC[C@]3(C)[C@@H]([C@H](C)C[C@H](C=C(C)C)OC(=O)/C=C/c4ccccc4)CC[C@@]3(C)[C@H]12 [KARAVOATE O]; 1.4

Turning now to a further record.
Exercise: Any idea what Ratio was measured for "C[C@H](C/C=C/C(C)(C)O)[C@H]1CC[C@@]2(C)[C@@H]3[C@@H](O)C=C4[C@@H](CC[C@H](O)C4(C)C)[C@]3(C)CC[C@]12C" ?
Key: 36

---

# target-entity: UniProtKB P08183
# test-description: Inhibition of MDR1-mediated efflux-pump activity in mouse L5178Y cells expressing human MDR1 assessed as side scattered light at 20 uM preincubated for 10 mins followed by rhodamine-123 addition measured after 20 mins by flow cytometry (reference value: 194.6 to 286.4)
# Type: cell-based
measurement-name: Activity
Just the number, please.

Worked set:
1) CO[C@H]1C=C2[C@@H](CC[C@H](OC(=O)c3ccc(Cl)cc3)C2(C)C)[C@]2(C)CC[C@]3(C)[C@@H]([C@H](C)C[C@H](C=C(C)C)OC(=O)c4ccc(Cl)cc4)CC[C@@]3(C)[C@H]12 [KARAVOATE L]; 202.4
2) CO[C@H]1C=C2[C@@H](CC[C@H](OC(=O)CCC(=O)O)C2(C)C)[C@]2(C)CC[C@]3(C)[C@@H]([C@H](C)C[C@H](C=C(C)C)OC(=O)CCC(=O)O)CC[C@@]3(C)[C@H]12; 187
3) CO[C@H]1C=C2[C@@H](CC[C@H](O)C2(C)C)[C@]2(C)C[C@@H](O)[C@]3(C)[C@@H]([C@H](C)C[C@@H](O)C=C(C)C)CC[C@@]3(C)[C@H]12 [CUCURBALSAMINOL C]; 237.6
4) C[C@H](C/C=C/C(C)(C)O)[C@H]1CC[C@@]2(C)[C@@H]3[C@@H](O)C=C4[C@@H](CC[C@H](O)C4(C)C)[C@]3(C)C[C@@H](O)[C@]12C [CUCURBALSAMINOL A]; 252
5) CC(=O)O[C@H]1C=C2[C@@H](CC[C@H](OC(C)=O)C2(C)C)[C@]2(C)CC[C@]3(C)[C@@H]([C@H](C)C[C@H](C=C(C)C)OC(C)=O)CC[C@@]3(C)[C@H]12 [TRIACETYLBALSAMINOL F]; 179.9

Exercise: Any idea what Activity was measured for "CC(C)=C[C@H](O)C[C@@H](C)[C@H]1CC[C@@]2(C)[C@@H]3[C@@H](O[C@H]4O[C@@H](CO)[C@H](O)[C@H](O)[C@@H]4O)C=C4[C@@H](CC[C@H](O)C4(C)C)[C@]3(C)CC[C@]12C" ?
Key: 277.2

Exercise: Any idea what Activity was measured for CC(C)=C[C@H](O)C[C@@H](C)[C@H]1CC[C@@]2(C)[C@@H]3C(O[C@H]4O[C@@H](CO)[C@H](O)[C@@H](O)[C@@H]4O)C=C4[C@@H](CC[C@H](O)C4(C)C)[C@]3(C)CC[C@]12C (some centres undefined) ?
Key: 236.9

Exercise: Any idea what Activity was measured for CC(C)=C[C@@H](C[C@@H](C)[C@H]1CC[C@@]2(C)[C@@H]3[C@@H](OC(=O)c4ccccc4)C=C4[C@@H](CC[C@H](OC(=O)c5ccccc5)C4(C)C)[C@]3(C)CC[C@]12C)OC(=O)c1ccccc1 [TRIBENZOYLBALSAMINOL F] ?
Key: 181.7

Exercise: Any idea what Activity was measured for "CO[C@H]1C=C2[C@@H](CC[C@H](OC(=O)c3ccccc3)C2(C)C)[C@]2(C)CC[C@]3(C)[C@@H]([C@H](C)C/C=C/C(C)(C)O)CC[C@@]3(C)[C@H]12" ?
Key: 235.1

---

# target-entity: UniProtKB P08183
# test-description: Inhibition of MDR1-mediated efflux-pump activity in mouse L5178Y cells expressing human MDR1 assessed as mean fluorescence intensity at 2 uM preincubated for 10 mins followed by rhodamine-123 addition measured after 20 mins by flow cytometry (reference value: 7.1 to 18.6)
# Assay type: cell-based
Items are presented alongside their recorded Flu intensity.
Just the number, please.

Worked set:
1. CC(C)=C[C@H](O)C[C@@H](C)[C@H]1CC[C@@]2(C)[C@@H]3[C@@H](O[C@H]4O[C@@H](CO)[C@H](O)[C@H](O)[C@@H]4O)C=C4[C@@H](CC[C@H](O)C4(C)C)[C@]3(C)CC[C@]12C; 11.5
2. CO[C@H]1C=C2[C@@H](CC[C@H](O)C2(C)C)[C@]2(C)CC[C@]3(C)[C@@H]([C@H](C)C[C@H](C=C(C)C)OC(=O)/C=C/c4ccccc4)CC[C@@]3(C)[C@H]12 [KARAVOATE O]; 10
3. CCCC(=O)O[C@H]1CC[C@@H]2C(=C[C@H](OC)[C@@H]3[C@@]2(C)CC[C@]2(C)[C@@H]([C@H](C)C[C@H](C=C(C)C)OC(=O)CCC)CC[C@@]32C)C1(C)C [KARAVOATE F]; 10.8

Exercise: Any idea what Flu intensity was measured for CC(C)=C[C@@H](C[C@@H](C)[C@H]1CC[C@@]2(C)[C@@H]3[C@@H](OC(=O)c4ccccc4)C=C4[C@@H](CC[C@H](OC(=O)c5ccccc5)C4(C)C)[C@]3(C)CC[C@]12C)OC(=O)c1ccccc1 [TRIBENZOYLBALSAMINOL F] ?
Key: 7.6
